Tested on: biotinyl-Met-oxazolone
Test: self-aminoacylation, catalytic enhancement (BMO) (fold over background); higher = more active; k-Seq, kA / k0A0; sequences stand for … in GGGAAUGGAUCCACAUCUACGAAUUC…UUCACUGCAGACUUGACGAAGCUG
Variants at the floor of the assay were thinned out.
Tag: True if measured self-aminoacylation is not below 4, False if it is.

Query block: Does CCACACUUCAAUCAAUCUGUC [Fam1B.1 aminoacylation ribozyme variant] have a reported self-aminoacylation of at least 4?
Result block: False

Query block: And the next one, CCACAAGUCAAGCAAUCGGUC [Fam1B.1 aminoacylation ribozyme variant] ?
Result block: False

Query block: And the next one, AUUCACCUAGGUCACCCGGUG [Fam2.2 aminoacylation ribozyme variant] ?
Result block: True

Query block: And the next one, UUUACCCUGGUAAUCGAGUGA [Fam2.1 aminoacylation ribozyme variant] ?
Result block: True

Query block: And the next one, UUUAACCUGGUCAUCGAGUGA [Fam2.1 aminoacylation ribozyme variant] ?
Result block: True

----------
System: biotinyl-Phe-oxazolone
Assay: self-aminoacylation, catalytic enhancement (BFO) (fold over background); higher = more active; k-Seq, kA / k0A0; sequences stand for … in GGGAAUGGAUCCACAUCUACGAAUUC…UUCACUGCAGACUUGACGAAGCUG
Variants at the floor of the assay were thinned out.
MEASURE: self-aminoacylation
// no unit, no text: just the number

Previously resolved entries follow.
1) CAGUUUGCUAAUAGUCGCAAG [Fam3.1 aminoacylation ribozyme variant]    2.94
2) CCACACUUCAUGCAAUAGGUC [Fam1B.1 aminoacylation ribozyme variant]    1.03
3) AUUACCGUGGUCUUCGAGUGA [Fam2.1 aminoacylation ribozyme variant]    27
4) CUACUUCAAAAAAUCUGUCUG [Fam1A.1 aminoacylation ribozyme variant]    1.36
5) AUUACCCUGGUCAUCGUGAGA [Fam2.1 aminoacylation ribozyme variant]    0.858
6) CUCCUUCAAACAAUCGGUCGG [Fam1A.1 aminoacylation ribozyme variant]    62.4
7) CUACUUCACACAAUCGGUCUU [Fam1A.1 aminoacylation ribozyme variant]    0.701
8) UUACUUCAAACAAUCGGUGUG [Fam1A.1 aminoacylation ribozyme variant]    7.15

Query block: self-aminoacylation lookup needed for CAGUUUGCUAAUAGACGCAAG [Fam3.1 aminoacylation ribozyme variant] , thanks.
Result block: 1.08

Query block: And the next one, AUUCACUUAAGUCAUCGGGUG [Fam2.2 aminoacylation ribozyme variant] ?
Result block: 71.7

Query block: And the next one, AUUCACUUAGGUGAUCGGGUG [Fam2.2 aminoacylation ribozyme variant] ?
Result block: 13.3

Query block: And the next one, AAGUUUCCUAAUAGUCGCGAG [Fam3.1 aminoacylation ribozyme variant] ?
Result block: 3.66

Query block: And the next one, CUACUUCAAAGAAUCGGUCGG [Fam1A.1 aminoacylation ribozyme variant] ?
Result block: 1.37

Query block: And the next one, AAGGUUGCUGAUAGUCGCAAG [Fam3.1 aminoacylation ribozyme variant] ?
Result block: 2.05

Query block: And the next one, AAGUUUGCUAAUAGGCGCAGG [Fam3.1 aminoacylation ribozyme variant] ?
Result block: 0.997

Query block: And the next one, AUGCACCUAGGUCAUCGGGCG [Fam2.2 aminoacylation ribozyme variant] ?
Result block: 13.5

Query block: And the next one, CCACACUUCAGGCAAUCGGUA [Fam1B.1 aminoacylation ribozyme variant] ?
Result block: 1.97

Query block: And the next one, AUUACCCUGCGCAUCGAGUGA [Fam2.1 aminoacylation ribozyme variant] ?
Result block: 20.5

Each recorded value in this set is attributed to the supplement of paper PMC9233669.
